The values you see were collected from patent US20170210813A1.

assayedSystem: T1, hPDGFRb.mmh (human, UniProt P09619 33-531)
T1 construct: Soluble monomeric construct; also called soluble human PDGFR-beta.mmh
T1 sequence (P09619 other isoform, or with tags, fused parts or gaps): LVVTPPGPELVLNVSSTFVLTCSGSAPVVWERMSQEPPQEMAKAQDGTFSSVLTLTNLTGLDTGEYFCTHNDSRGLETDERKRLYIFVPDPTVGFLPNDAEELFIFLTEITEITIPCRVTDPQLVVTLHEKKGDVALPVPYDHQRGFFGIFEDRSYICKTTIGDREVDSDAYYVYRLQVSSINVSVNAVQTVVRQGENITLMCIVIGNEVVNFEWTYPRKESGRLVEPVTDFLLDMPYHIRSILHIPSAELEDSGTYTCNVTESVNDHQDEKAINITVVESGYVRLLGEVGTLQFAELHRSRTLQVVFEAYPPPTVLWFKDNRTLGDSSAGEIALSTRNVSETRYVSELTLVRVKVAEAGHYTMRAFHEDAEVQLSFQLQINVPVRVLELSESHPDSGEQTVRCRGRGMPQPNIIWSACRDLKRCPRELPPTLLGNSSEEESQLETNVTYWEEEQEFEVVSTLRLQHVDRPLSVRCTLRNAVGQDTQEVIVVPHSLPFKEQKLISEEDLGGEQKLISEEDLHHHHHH
assayText: SPR, mAb captured, 25 C
Classification field: class 1 = koff at or over 0.0006 s⁻¹; class 0 = koff under 0.0006 s⁻¹.

INSERT INTO assay_data (binder, label) VALUES
  ('H4H3106S (antibody, human IgG4, V domains shown, human IgG4 Fc (H4H prefix)) VH: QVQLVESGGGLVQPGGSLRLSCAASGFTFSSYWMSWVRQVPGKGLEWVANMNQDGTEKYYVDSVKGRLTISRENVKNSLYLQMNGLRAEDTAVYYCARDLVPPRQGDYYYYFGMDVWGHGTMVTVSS VL: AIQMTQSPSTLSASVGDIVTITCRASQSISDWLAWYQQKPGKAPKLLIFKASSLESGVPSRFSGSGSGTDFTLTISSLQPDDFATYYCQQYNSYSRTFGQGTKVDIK', 'class 1'),
  ('H4H3096S (antibody, human IgG4, V domains shown, human IgG4 Fc (H4H prefix)) VH: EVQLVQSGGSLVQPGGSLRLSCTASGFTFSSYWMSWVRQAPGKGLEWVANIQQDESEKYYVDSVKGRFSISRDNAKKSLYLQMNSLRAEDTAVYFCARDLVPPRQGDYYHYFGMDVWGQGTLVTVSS VL: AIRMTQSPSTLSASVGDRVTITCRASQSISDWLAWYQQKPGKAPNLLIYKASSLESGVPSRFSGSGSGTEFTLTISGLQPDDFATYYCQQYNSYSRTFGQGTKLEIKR', 'class 1'),
  ('H4H3104S (antibody, human IgG4, V domains shown, human IgG4 Fc (H4H prefix)) VH: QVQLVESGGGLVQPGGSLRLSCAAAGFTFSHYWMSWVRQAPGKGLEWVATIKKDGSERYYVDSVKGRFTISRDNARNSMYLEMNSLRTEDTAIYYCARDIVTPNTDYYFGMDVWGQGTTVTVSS VL: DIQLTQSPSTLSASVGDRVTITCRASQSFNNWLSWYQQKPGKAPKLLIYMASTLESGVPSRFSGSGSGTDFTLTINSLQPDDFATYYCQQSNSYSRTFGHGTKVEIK', 'class 1'),
  ('H1M3361N (antibody, mouse IgG1, V domains shown, mouse IgG1 Fc (H1M prefix)) VH: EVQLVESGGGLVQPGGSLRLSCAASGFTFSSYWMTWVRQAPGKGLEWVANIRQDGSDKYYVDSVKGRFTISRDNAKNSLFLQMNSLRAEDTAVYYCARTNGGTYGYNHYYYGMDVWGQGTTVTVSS VL: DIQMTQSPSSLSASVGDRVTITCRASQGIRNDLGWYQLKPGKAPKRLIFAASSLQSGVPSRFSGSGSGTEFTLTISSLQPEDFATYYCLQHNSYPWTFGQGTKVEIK', 'class 1'),
  ('H4H3095S (antibody, human IgG4, V domains shown, human IgG4 Fc (H4H prefix)) VH: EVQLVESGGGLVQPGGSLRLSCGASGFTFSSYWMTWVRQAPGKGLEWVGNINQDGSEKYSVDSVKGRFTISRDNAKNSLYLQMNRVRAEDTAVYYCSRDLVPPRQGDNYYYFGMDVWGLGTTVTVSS VL: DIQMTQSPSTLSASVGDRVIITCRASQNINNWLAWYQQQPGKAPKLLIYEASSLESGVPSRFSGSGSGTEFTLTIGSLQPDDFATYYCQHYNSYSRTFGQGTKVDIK', 'class 1'),
  ('H4H3105S (antibody, human IgG4, V domains shown, human IgG4 Fc (H4H prefix)) VH: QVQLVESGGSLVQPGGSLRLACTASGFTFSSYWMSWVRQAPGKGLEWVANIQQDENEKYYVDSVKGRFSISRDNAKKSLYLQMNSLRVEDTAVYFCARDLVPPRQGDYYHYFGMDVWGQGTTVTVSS VL: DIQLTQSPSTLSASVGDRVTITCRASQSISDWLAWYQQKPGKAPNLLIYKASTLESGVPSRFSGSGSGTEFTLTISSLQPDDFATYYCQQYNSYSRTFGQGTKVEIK', 'class 1'),
  ('H1M3374N (antibody, V domains shown, mouse Fc format; also called H2M3374N) VH: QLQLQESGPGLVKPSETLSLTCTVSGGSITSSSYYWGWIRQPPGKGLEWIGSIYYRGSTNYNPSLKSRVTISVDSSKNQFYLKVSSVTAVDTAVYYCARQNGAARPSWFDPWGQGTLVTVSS VL: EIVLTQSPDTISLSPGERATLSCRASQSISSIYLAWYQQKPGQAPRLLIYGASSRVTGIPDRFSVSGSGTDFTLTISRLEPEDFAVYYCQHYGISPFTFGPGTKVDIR', 'class 0'),
  ('H2M3368N (antibody, V domains shown, mouse Fc (H2M prefix; isotype not spelled out)) VH: QVQLQQWGAGLLKPSETLSLTCAVYGGSFSGYYWTWIRQSPGKGLEWMGEISHRGTTNYNPSLKSRLTISLDTSNNHFSLKLSSVTAADTAVYYCAREERLGMGYDYFGLDVWGQGTTVTVSS VL: EIVLTQSPATLSLSPGERATLSCRASQSVSTYLTWYQQKPGQAPRLLIYDASNRATGIPARFSGSGSGTDFTLTISSLEPEDCAVYYCQQRSIWITFGQGTRLEIK', 'class 0'),
  ('H4H3102S (antibody, human IgG4, V domains shown, human IgG4 Fc (H4H prefix)) VH: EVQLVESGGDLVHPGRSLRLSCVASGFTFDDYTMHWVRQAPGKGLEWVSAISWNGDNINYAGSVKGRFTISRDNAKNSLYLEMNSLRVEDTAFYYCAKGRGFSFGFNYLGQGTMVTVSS VL: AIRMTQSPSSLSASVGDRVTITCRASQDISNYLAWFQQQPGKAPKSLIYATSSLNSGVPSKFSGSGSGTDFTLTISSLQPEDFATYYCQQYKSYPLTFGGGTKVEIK', 'class 0');
